Origin of values: patent US20180148504A1

Target: T1, recombinant purified FRα (ECL assay calibrator) (human, UniProt P15328 25-234)
T1 construct: Calibrator of the ECL sandwich assays; also called FRα calibrator; FRα standard
T1 sequence (P15328 25-234 limits assumed): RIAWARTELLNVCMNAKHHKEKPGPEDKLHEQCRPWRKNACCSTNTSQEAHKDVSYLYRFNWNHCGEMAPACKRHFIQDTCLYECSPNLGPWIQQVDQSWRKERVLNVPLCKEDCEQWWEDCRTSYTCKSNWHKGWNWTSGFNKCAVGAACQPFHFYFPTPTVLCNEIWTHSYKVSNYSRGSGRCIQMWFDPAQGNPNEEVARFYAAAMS
Experiment Notes: ECL sandwich on FRα, signal to background; capture 19D2.G9; binder = detection Ab
# Average of S/B values compiled below
Measurement Type: Average of S/B

{"columns": ["Binder", "Observed Measurement"],
 "data": [
  ["Monoclonal antibody 24H8.D3 (antibody, mouse IgG1, V domains shown, Biotin-conjugated when used as capture antibody in the ECL assay; also called ATCC PTA-123090) VH: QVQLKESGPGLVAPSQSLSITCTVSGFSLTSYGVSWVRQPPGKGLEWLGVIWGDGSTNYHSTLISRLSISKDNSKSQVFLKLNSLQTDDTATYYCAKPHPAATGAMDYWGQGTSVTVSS VL: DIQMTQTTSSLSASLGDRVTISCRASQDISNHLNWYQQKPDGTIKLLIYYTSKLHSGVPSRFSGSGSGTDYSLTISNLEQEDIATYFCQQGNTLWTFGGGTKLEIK", 2],
  ["Monoclonal antibody 26A9.C4 (antibody, mouse IgG1, V domains shown, Murine IgG1 kappa from hybridoma; also called ATCC PTA-123092) VH: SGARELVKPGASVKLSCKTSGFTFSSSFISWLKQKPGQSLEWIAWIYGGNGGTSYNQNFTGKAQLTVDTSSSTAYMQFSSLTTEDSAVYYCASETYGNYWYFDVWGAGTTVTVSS VL: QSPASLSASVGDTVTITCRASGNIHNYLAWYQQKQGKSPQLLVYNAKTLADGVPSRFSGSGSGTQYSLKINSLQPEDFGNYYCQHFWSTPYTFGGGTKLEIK", 1],
  ["Monoclonal antibody 1A8.G11.E7 (antibody, mouse IgG1, V domains shown, Murine IgG1 kappa from hybridoma; also called ATCC PTA-123100) VH: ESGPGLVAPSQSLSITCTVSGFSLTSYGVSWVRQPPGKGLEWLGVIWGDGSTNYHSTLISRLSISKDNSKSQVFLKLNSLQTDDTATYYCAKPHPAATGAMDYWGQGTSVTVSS VL: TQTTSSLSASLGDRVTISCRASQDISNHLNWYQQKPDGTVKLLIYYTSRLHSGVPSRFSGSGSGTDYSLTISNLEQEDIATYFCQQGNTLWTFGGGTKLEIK", 2],
  ["Monoclonal antibody 1D2.D8.G10 (antibody, mouse IgG1, V domains shown, Murine IgG1 kappa from hybridoma; also called 1D2.D8.G0; ATCC PTA-123098) VH: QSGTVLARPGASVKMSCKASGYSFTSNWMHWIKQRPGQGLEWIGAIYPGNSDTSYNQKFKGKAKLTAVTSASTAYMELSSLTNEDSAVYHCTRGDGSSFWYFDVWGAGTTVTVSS VL: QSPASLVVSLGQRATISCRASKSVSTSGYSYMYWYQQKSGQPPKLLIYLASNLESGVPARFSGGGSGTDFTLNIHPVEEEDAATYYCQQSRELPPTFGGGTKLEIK", 1],
  ["Monoclonal antibody 19D4.B7 (antibody, mouse IgG2a, V domains shown, SULFO-TAG conjugated when used as detection antibody in the ECL assay; also called ATCC PTA-11884) VH: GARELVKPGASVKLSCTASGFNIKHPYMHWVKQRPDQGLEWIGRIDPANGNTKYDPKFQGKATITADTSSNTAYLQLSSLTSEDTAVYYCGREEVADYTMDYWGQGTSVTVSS VL: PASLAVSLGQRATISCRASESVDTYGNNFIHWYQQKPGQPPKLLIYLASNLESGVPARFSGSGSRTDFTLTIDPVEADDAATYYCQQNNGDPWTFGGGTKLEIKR", 560],
  ["Monoclonal antibody 6A2.G7 (antibody, mouse IgG1, V domains shown, Murine IgG1 kappa from hybridoma; also called ATCC PTA-123093) VH: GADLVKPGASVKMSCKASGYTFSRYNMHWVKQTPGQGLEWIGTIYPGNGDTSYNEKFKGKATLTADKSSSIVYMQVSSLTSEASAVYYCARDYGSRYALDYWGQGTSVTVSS VL: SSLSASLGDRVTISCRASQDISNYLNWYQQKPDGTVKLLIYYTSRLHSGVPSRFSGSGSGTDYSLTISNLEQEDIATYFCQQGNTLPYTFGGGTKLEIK", 205],
  ["Monoclonal antibody 1C6.E12.G8 (antibody, mouse IgG1, V domains shown, Murine IgG1 kappa from hybridoma; also called ATCC PTA-123091) VH: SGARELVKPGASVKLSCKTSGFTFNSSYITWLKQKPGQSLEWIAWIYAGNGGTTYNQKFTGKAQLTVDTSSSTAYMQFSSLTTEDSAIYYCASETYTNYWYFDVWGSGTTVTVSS VL: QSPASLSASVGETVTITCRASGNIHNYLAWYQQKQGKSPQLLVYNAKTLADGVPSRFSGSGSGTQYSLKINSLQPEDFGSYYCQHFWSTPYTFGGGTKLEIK", 1],
  ["Monoclonal antibody 24H8.F3 (antibody, mouse IgG1, V domains shown, Murine IgG1 kappa from hybridoma; also called ATCC PTA-123097) VH: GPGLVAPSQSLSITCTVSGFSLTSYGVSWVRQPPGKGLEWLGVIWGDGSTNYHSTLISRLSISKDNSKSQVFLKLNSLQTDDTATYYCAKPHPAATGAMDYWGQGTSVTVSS VL: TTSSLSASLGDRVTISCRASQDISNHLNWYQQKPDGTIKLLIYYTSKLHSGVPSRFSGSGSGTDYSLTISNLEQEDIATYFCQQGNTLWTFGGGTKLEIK", 4]
]}
